// data source = ChEMBL document CHEMBL5058564

Tested on: HEK-293T
Assay: Incucyte cell viability with HEK293T; note: unitless GR value; below 1 slowed growth and below 0 cell loss
Type: toxicity, cell-based
Conditions: human, 6 h, 10 µM, compound concentration 10 uM, replicate number 2, timepoint 6 hours
Note to self: values exactly at 0.6 are rule met. So Growth Rate at or above 0.6 is rule met, below is rule not met.

[
  {
    "COMPOUND": "CC[S+]([O-])c1nc(-c2cccc(OCc3ccccc3)c2)cc(C(F)(F)F)n1 (centres undefined)",
    "GROUP": "rule not met"
  },
  {
    "COMPOUND": "COc1ccc(CN(CCN(C)C)c2ccccn2)cc1",
    "GROUP": "rule met"
  },
  {
    "COMPOUND": "O=C(NCCN1CCC(n2c(=O)[nH]c3cc(Cl)ccc32)CC1)c1ccc(F)cc1 [HALOPEMIDE]",
    "GROUP": "rule met"
  },
  {
    "COMPOUND": "N#Cc1c(Oc2cccc(OS(=O)(=O)CCCC(F)(F)F)c2)cccc1C(F)(F)F",
    "GROUP": "rule not met"
  },
  {
    "COMPOUND": "O=C(NCCNCC(O)COc1ccc(O)cc1)N1CCOCC1.O=C(NCCNCC(O)COc1ccc(O)cc1)N1CCOCC1.O=C(O)/C=C/C(=O)O (centres undefined) [XAMOTEROL FUMARATE]",
    "GROUP": "rule met"
  },
  {
    "COMPOUND": "C[C@@H]1CC(=O)Nc2cccc(-c3ccc4c(c3)c(-c3cnn(C)c3)nn4C)c2N1",
    "GROUP": "rule not met"
  },
  {
    "COMPOUND": "O=C(NCC(=O)N1CC[C@H](N[C@H]2CC[C@@](O)(c3ccc(-c4ncccn4)cn3)CC2)C1)c1cccc(C(F)(F)F)c1",
    "GROUP": "rule met"
  },
  {
    "COMPOUND": "CCC(C)n1ncn(-c2ccc(N3CCN(c4ccc(OC[C@@H]5CO[C@@](Cn6cncn6)(c6ccc(Cl)cc6Cl)O5)cc4)CC3)cc2)c1=O.CCC(C)n1ncn(-c2ccc(N3CCN(c4ccc(OC[C@H]5CO[C@](Cn6cncn6)(c6ccc(Cl)cc6Cl)O5)cc4)CC3)cc2)c1=O (some centres undefined)",
    "GROUP": "rule not met"
  }
]

----------
Tested on: HEK-293T
Test: Incucyte cell viability with HEK293T; note: unitless GR value; below 1 slowed growth and below 0 cell loss
Type: toxicity, cell-based
Details: human, 12 h, 10 µM, compound concentration 10 uM, replicate number 2, timepoint 12 hours
QUANTITY MEASURED: Growth Rate

[
  {
    "COMPOUND": "CC(C)n1cc(-c2ccc(N3CCN(C)CC3)c(NC(=O)c3ccc(-c4ccncc4)o3)c2)cn1",
    "ENDPOINT VALUE": -0.04
  },
  {
    "COMPOUND": "CCCCOCCOc1nc(-c2ccc(C(=O)O)c(F)c2)sc1C",
    "ENDPOINT VALUE": 0.88
  },
  {
    "COMPOUND": "O=S(=O)(c1ccccc1)N(CC(F)(F)F)c1ccc(C(O)(C(F)(F)F)C(F)(F)F)cc1 [T091317]",
    "ENDPOINT VALUE": 0.75
  }
]

----------
Test system: Fibroblast
Test: Incucyte cell viability with human fibroblast; note: unitless GR value; below 1 slowed growth and below 0 cell loss
Format: toxicity, cell-based
Conditions: 18 h, 10 µM, compound concentration 10 uM, replicate number 2, timepoint 18 hours
Quick reference for Growth Rate among some compounds
QUANTITY MEASURED: Growth Rate

[
  {
    "RECORD SMILES": "O=C1NC(=Nc2c(Cl)cccc2Cl)S/C1=C\\c1ccc2nccnc2c1",
    "TARGET SYSTEM": "Fibroblast",
    "ENDPOINT VALUE": 0.61
  },
  {
    "RECORD SMILES": "COc1ccc(-n2c(C)c([N+](=O)[O-])c3ccc(O)cc32)cc1",
    "TARGET SYSTEM": "Fibroblast",
    "ENDPOINT VALUE": 0.87
  },
  {
    "RECORD SMILES": "NC(N)=Nc1nc(CSCCC(N)=NS(N)(=O)=O)cs1",
    "TARGET SYSTEM": "Fibroblast",
    "ENDPOINT VALUE": 0.4
  },
  {
    "RECORD SMILES": "CN[C@@H](C)C(=O)N[C@H](C(=O)N1CCC[C@H]1C(=O)Nc1snnc1-c1ccccc1)C1CCCCC1",
    "TARGET SYSTEM": "Fibroblast",
    "ENDPOINT VALUE": -0.22
  }
]

----------
Quick reference for Growth Rate among some compounds
Tested on: U2OS
Test: Incucyte cell viability with U2OS; note: unitless GR value; below 1 slowed growth and below 0 cell loss
Assay type: toxicity, cell-based
Conditions: human, 24 h, 10 µM, compound concentration 10 uM, replicate number 1, timepoint 24 hours
QUANTITY MEASURED: Growth Rate

[
  {
    "COMPOUND": "Cc1ccccc1C(=O)Nc1ccc(C(=O)N2CCCC(N(C)C)c3ccccc32)cc1.Cl (stereo unspecified)",
    "ENDPOINT VALUE": -0.11
  },
  {
    "COMPOUND": "CNc1nc(NCc2ncccn2)c2c(-c3ccc4ncccc4c3)c[nH]c2n1",
    "ENDPOINT VALUE": 0.4
  },
  {
    "COMPOUND": "N=C(N)NCCC[C@H](NC(=O)COCC(c1ccccc1)c1ccccc1)C(=O)O.O=C(O)C(F)(F)F",
    "ENDPOINT VALUE": 0.8
  },
  {
    "COMPOUND": "COc1cc(Nc2ncc3c(n2)-c2ccc(Cl)cc2C(c2c(F)cccc2OC)=NC3)ccc1C(=O)O [ALISERTIB]",
    "ENDPOINT VALUE": 0.39
  },
  {
    "COMPOUND": "CN(c1ncccc1CNc1ccnc(-c2cc3cc(Cl)ccc3[nH]2)n1)S(C)(=O)=O",
    "ENDPOINT VALUE": 0.61
  },
  {
    "COMPOUND": "Cc1cc(CN)cc(C)c1-c1ncn(C)c1-c1ccnc2cc(F)ccc12",
    "ENDPOINT VALUE": 0.79
  },
  {
    "COMPOUND": "CO[C@H]1CNC[C@@H](OCC2CCC(F)(F)CC2)[C@@H]1Nc1ncc(-c2cncc(C)c2)c2cc(C)c(=O)[nH]c12",
    "ENDPOINT VALUE": 0.53
  },
  {
    "COMPOUND": "Cc1ccc(/C(=C\\CN2CCCC2)c2ccccn2)cc1 [TRIPROLIDINE]",
    "ENDPOINT VALUE": 0.83
  },
  {
    "COMPOUND": "Brc1c(N=C2NCCN2)ccc2nccnc12.O=C(O)C(O)C(O)C(=O)O",
    "ENDPOINT VALUE": 0.89
  },
  {
    "COMPOUND": "CSc1cc2c(cc1C(F)(F)F)N(C(=O)Nc1cccnc1)CC2",
    "ENDPOINT VALUE": 0.99
  },
  {
    "COMPOUND": "CCCCCCNC(=O)Nc1ccc(S(=O)(=O)Nc2ccc(CCNC[C@H](O)COc3ccc(O)cc3)cc2)cc1 [L-755507]",
    "ENDPOINT VALUE": 0.87
  }
]

----------
Tested on: U2OS
Experiment: Incucyte cell viability with U2OS; note: unitless GR value; below 1 slowed growth and below 0 cell loss
Type: toxicity, cell-based
Conditions: human, 24 h, 10 µM, compound concentration 10 uM, replicate number 1, timepoint 24 hours
Quick reference for Growth Rate among some compounds

[
  {
    "COMPOUND": "Nc1nc(-c2ccco2)c2cnn(Cc3ccccc3F)c2n1",
    "Growth Rate": 0.89
  },
  {
    "COMPOUND": "Cc1nn(C)c(C)c1-c1cccc2c1CC[C@H](N(C)C)C2",
    "Growth Rate": 0.86
  },
  {
    "COMPOUND": "CCCCCCCCCCCCC/C=C/[C@@H](O)[C@@H](N)COP(=O)(O)O",
    "Growth Rate": 0.88
  },
  {
    "COMPOUND": "CN(C)c1ccnc2sc3c(=O)n(N4CCCCCC4)cnc3c12",
    "Growth Rate": 0.78
  },
  {
    "COMPOUND": "CN(C)C/C=C/C(=O)Nc1ccc(C(=O)N2CCCC(Nc3ncc(Cl)c(-c4c[nH]c5ccccc45)n3)C2)cc1 (configuration not stated)",
    "Growth Rate": 0.09
  },
  {
    "COMPOUND": "C[C@@H](OC[C@@]1(c2ccccc2)CC[C@]2(CCC(=O)N2)CN1)c1cc(C(F)(F)F)cc(C(F)(F)F)c1",
    "Growth Rate": 0.84
  },
  {
    "COMPOUND": "CC(C)(C)c1ccc(CSc2cnn(C(C)(C)C)c(=O)c2Cl)cc1",
    "Growth Rate": 0.86
  },
  {
    "COMPOUND": "COc1ccc(-n2c(C)c([N+](=O)[O-])c3ccc(O)cc32)cc1",
    "Growth Rate": 0.63
  },
  {
    "COMPOUND": "CN[C@@H]1CCc2[nH]c3ccc(C(N)=O)cc3c2C1.O.O=C(O)CCC(=O)O [FROVATRIPTAN SUCCINATE]",
    "Growth Rate": 0.63
  },
  {
    "COMPOUND": "NCCc1cn(S(=O)(=O)c2c(Cl)nc3sccn23)c2ccccc12.O=C(O)C(=O)O",
    "Growth Rate": 0.87
  },
  {
    "COMPOUND": "O=C1NC(=Nc2c(Cl)cccc2Cl)S/C1=C\\c1ccc2nccnc2c1",
    "Growth Rate": 0.63
  },
  {
    "COMPOUND": "CN(C)CCn1cc(S(=O)(=O)c2cccc(F)c2)c2cccnc21.Cl.Cl",
    "Growth Rate": 0.86
  }
]
